System: SK-MEL-28
MEASUREMENT NOTES: SRB colorimetric assay of cell growth and viability, SK-MEL-28
Type: cell-based, human
CONDITION CONTEXT: 48 hours exposure
Method: The finality of this assay is to interrupt the growth of a “in vitro” tumor cell culture by means a continued exhibition of the cells to the sample to be testing. […] Cells are seeded in 96 well microtiter plates, at 5×10^3 cells per well in aliquots of 195 μL medium, and they are allowed to attach to the plate surface by growing in drug free medium for 18 hours. […] Optical densities are read on a automated spectrophotometric plate reader at a single wavelength of 490 nm. […]
Where a SMILES comes first, the peptide text is derived from it. Bridges are numbered along the chain shown (N, C = ends). [ ]: non-standard residue; d: D form. The star is where a group is joined. d(aIle) = CC[C@H](C)[C@@H](N)C(=O)O; d(aThr) = C[C@@H](O)[C@@H](N)C(=O)O; Hexanoyl(5-Me) = CC(C)CCCC(=O)*; Myristoyl = CCCCCCCCCCCCCC(=O)*; Orn = NCCC[C@H](N)C(=O)O; Dhb = C/C=C(\N)C(=O)O
Quick list: GI50 per entry.
MEASURE NAME: GI50

COMPOUND: C/C=C1\NC(=O)[C@H](Cc2ccccc2)NC(=O)[C@@H](C(C)C)NC(=O)[C@@H]([C@@H](C)CC)NC(=O)[C@H](NC(=O)[C@H](NC(=O)[C@H](CCCN)NC(=O)[C@H]2CCCN2C(=O)[C@H](NC(=O)[C@@H]2CCCN2C(=O)[C@@H](NC(=O)[C@H](NC(=O)CCCC(C)C)C(C)C)[C@@H](C)O)C(C)C)[C@@H](C)CC)[C@@H](C)OC(=O)[C@H](C(C)C)NC1=O [Compound 47, [Pro^11]-KF] ({Hexanoyl(5-Me)}-[dV]TP[dV][dP][Orn][d(aIle)][d(aThr)][d(aIle)][dV]F[Dhb]V; ester 8-C)
RESULT: 6.78 µM

COMPOUND: C/C=C1\NC(=O)[C@H](Cc2ccccc2)NC(=O)[C@@H](C(C)C)NC(=O)[C@@H]([C@@H](C)CC)NC(=O)[C@H](NC(=O)[C@H](NC(=O)[C@H](CCCN)NC(=O)[C@H]2CCCN2C(=O)[C@H](NC(=O)CCCCCCCCCCCCC)C(C)C)[C@@H](C)CC)[C@@H](C)OC(=O)[C@H](C(C)C)NC1=O [Compound 32] (Myristoyl-[dV][dP][Orn][d(aIle)][d(aThr)][d(aIle)][dV]F[Dhb]V; ester 5-C)
RESULT: 2.08 µM
